test: Cell activity/viability of K562 cells treated with Mitoxantrone (Sulforhodamine B kit), single culture; format: cell-based; conditions: human, K562 cells (no ABC transporter); K562 single culture, Mitoxantrone 0.4 M, incubated for 96 hours
assay_endpoint: viability at 96 h, 0.4 M (%)
Please state the figure in %; there is no need to write the unit.

Query: Returns the measured viability at 96 h, 0.4 M for the input compound. Input: `O=C1c2c(O)ccc(O)c2C(=O)c2c(NCCNCCO)ccc(NCCNCCO)c21`
Reply: 28

* * *

test: Coculture of A549 and K562 cells treated with Mitoxantrone, viability of A549 cells; type: cell-based; settings: human, A549 cells cocultured with K562 cells, A549 co-cultured with K562, Mitoxantrone 0.4 M
assay_endpoint: viability at 96 h, 0.4 M (%)
Please state the figure in %; there is no need to write the unit.

Query: Returns the measured viability at 96 h, 0.4 M for the input compound. Input: O=C1c2c(O)ccc(O)c2C(=O)c2c(NCCNCCO)ccc(NCCNCCO)c21 [Mitoxantrone]
Reply: 92
